# experiment-notes: LY2510924 pharmacokinetics in plasma, noncompartmental analysis
# condition-details: human, plasma, sc, Cmax, Day 15; 40 mg/day SC, n = 3; geometric mean (CV%)
Where a SMILES comes first, the peptide text is derived from it. Bridges are numbered along the chain shown (N, C = ends). [ ]: non-standard residue; d: D form. 2Nal = N[C@@H](Cc1ccc2ccccc2c1)C(=O)O; Lys(iPr) = CC(C)NCCCC[C@H](N)C(=O)O

molecule	Cmax
CC(C)NCCCC[C@H](NC(=O)[C@H]1CCC(=O)N[C@@H](Cc2ccccc2)C(=O)N[C@@H](Cc2ccc(O)cc2)C(=O)N[C@@H](CCCCNC(C)C)C(=O)N[C@H](CCCNC(=N)N)C(=O)N[C@@H](Cc2ccc3ccccc3c2)C(=O)NCC(=O)N1)C(N)=O [LY2510924] (FY[Lys(iPr)][dR][2Nal]G[dE][Lys(iPr)]-NH2; lactam N-7)	1680 ng/mL

----------
# experiment-notes: LY2510924 pharmacokinetics in plasma, noncompartmental analysis
# condition-details: human, plasma, sc, Cmax, Day 15; 30 mg/day SC, n = 3; geometric mean (CV%)
Where a SMILES comes first, the peptide text is derived from it. Bridges are numbered along the chain shown (N, C = ends). [ ]: non-standard residue; d: D form. 2Nal = N[C@@H](Cc1ccc2ccccc2c1)C(=O)O; Lys(iPr) = CC(C)NCCCC[C@H](N)C(=O)O

molecule	Cmax / ng/mL
CC(C)NCCCC[C@H](NC(=O)[C@H]1CCC(=O)N[C@@H](Cc2ccccc2)C(=O)N[C@@H](Cc2ccc(O)cc2)C(=O)N[C@@H](CCCCNC(C)C)C(=O)N[C@H](CCCNC(=N)N)C(=O)N[C@@H](Cc2ccc3ccccc3c2)C(=O)NCC(=O)N1)C(N)=O [LY2510924] (FY[Lys(iPr)][dR][2Nal]G[dE][Lys(iPr)]-NH2; lactam N-7)	847

----------
# experiment-notes: LY2510924 pharmacokinetics in plasma, noncompartmental analysis
# condition-details: human, plasma, sc, AUC (0–inf), Day 15; 30 mg/day SC, n = 3; geometric mean (CV%)
Where a SMILES comes first, the peptide text is derived from it. Bridges are numbered along the chain shown (N, C = ends). [ ]: non-standard residue; d: D form. 2Nal = N[C@@H](Cc1ccc2ccccc2c1)C(=O)O; Lys(iPr) = CC(C)NCCCC[C@H](N)C(=O)O

molecule	units-text	AUC(0-inf)
CC(C)NCCCC[C@H](NC(=O)[C@H]1CCC(=O)N[C@@H](Cc2ccccc2)C(=O)N[C@@H](Cc2ccc(O)cc2)C(=O)N[C@@H](CCCCNC(C)C)C(=O)N[C@H](CCCNC(=N)N)C(=O)N[C@@H](Cc2ccc3ccccc3c2)C(=O)NCC(=O)N1)C(N)=O [LY2510924] (FY[Lys(iPr)][dR][2Nal]G[dE][Lys(iPr)]-NH2; lactam N-7)	ng·h/mL	4320

----------
# experiment-notes: LY2510924 pharmacokinetics in plasma, noncompartmental analysis
# condition-details: human, plasma, sc, Cmax, Day 15; 20 mg/day SC, n = 3; geometric mean (CV%)
Where a SMILES comes first, the peptide text is derived from it. Bridges are numbered along the chain shown (N, C = ends). [ ]: non-standard residue; d: D form. 2Nal = N[C@@H](Cc1ccc2ccccc2c1)C(=O)O; Lys(iPr) = CC(C)NCCCC[C@H](N)C(=O)O
endpoint-label: Cmax (ng/mL)

compound	units-text	measured-number
CC(C)NCCCC[C@H](NC(=O)[C@H]1CCC(=O)N[C@@H](Cc2ccccc2)C(=O)N[C@@H](Cc2ccc(O)cc2)C(=O)N[C@@H](CCCCNC(C)C)C(=O)N[C@H](CCCNC(=N)N)C(=O)N[C@@H](Cc2ccc3ccccc3c2)C(=O)NCC(=O)N1)C(N)=O [LY2510924] (FY[Lys(iPr)][dR][2Nal]G[dE][Lys(iPr)]-NH2; lactam N-7)	ng/mL	367
